Numbers sourced from ChEMBL document CHEMBL3526143.

# Protocol: AUC (0 to infinity) in C57BL/6 mouse at 15 mg/kg, iv
# Assay type: ADME, organism-based
# Set-up: time infinity, dose 15 mg/kg, route intravenous
# Test Settings: plasma
Metric: AUC(0-inf) (µM·h)
# unit: µM·h | format: bare number

For the compound Oc1ccc(/C=C/c2cc(O)cc(O)c2)cc1 [RESVERATROL] , what AUC(0-inf) is on record?
4.92

* * *

# Protocol: Partial substrate inhibition in mouse lung S9 fractions treated with trans-resveratrol preincubated for 3 mins followed by PAPS addition measured after 60 mins by Eadie-Hofstee plot analysis
# Format: ADME
Metric: pKi
Would you please state pKi, meaning minus log10 of the concentration in mol/L, as a bare number?

Could you share which pKi value was measured for O=S(=O)(O)Oc1cc(O)cc(/C=C/c2ccc(O)cc2)c1 ?
2.69

* * *

# Protocol: Drug metabolism in human lung S9 fractions assessed as trans-resveratrol-3-sulfate formation preincubated for 3 mins followed by PAPS addition measured after 60 mins by Eadie-Hofstee plot analysis
# Type: ADME, tissue-based
# Test Settings: s9, 1 h
Metric: Km (µM)
Reply numerically in µM, unit not repeated.

Data request, read-out Km, for Oc1ccc(/C=C/c2cc(O)cc(O)c2)cc1
4.45

* * *

# Protocol: Partial substrate inhibition in mouse lung S9 fractions treated with trans-resveratrol preincubated for 3 mins followed by UDPGA addition measured after 60 mins by Eadie-Hofstee plot analysis
# Type: ADME
Metric: pKi
Lab note — pKi values are minus log10 of concentrations in M.

Sample O=C(O)[C@H]1O[C@@H](Oc2cc(O)cc(/C=C/c3ccc(O)cc3)c2)[C@H](O)[C@@H](O)[C@@H]1O — what was its pKi?
2.18

* * *

# Protocol: Drug level in human lung microsomes treated with trans-resveratrol at 0.5 mM measured at 60 mins
# Format: ADME
# Test Settings: 1 h, 500 µM
Metric: Drug metabolism

Please look up its Drug metabolism: O=C(O)[C@H]1O[C@@H](Oc2cc(O)cc(/C=C/c3ccc(O)cc3)c2)[C@H](O)[C@@H](O)[C@@H]1O
< 10 ng/mL

* * *

# Protocol: Plasma protein binding in mouse at 20 uM by equilibrium dialysis method
# Format: ADME, cell-free
# Test Settings: read-out: PPB (converted)
Reported values of fraction unbound at 20 µM for individual entries
Reply with just the number.

Some solved cases for reference:
INSERT INTO assay_data (compound, reported_measurement) VALUES
  ('O=S(=O)(O)Oc1cc(O)cc(/C=C/c2ccc(O)cc2)c1', 0.128),
  ('Oc1ccc(/C=C/c2cc(O)cc(O)c2)cc1 [RESVERATROL]', 0.0805);

With those in mind, consider the next compound.
Would you mind telling me what fraction unbound at 20 µM value was observed for O=C(O)[C@H]1O[C@@H](Oc2cc(O)cc(/C=C/c3ccc(O)cc3)c2)[C@H](O)[C@@H](O)[C@@H]1O ?
0.333

* * *

# Protocol: Drug metabolism in mouse lung S9 fractions assessed as trans-resveratrol-3-O-glucuronide formation preincubated for 3 mins followed by UDPGA addition measured after 60 mins by Eadie-Hofstee plot analysis
# Format: ADME, tissue-based
# Test Settings: s9, 1 h
Metric: Km (µM)
Field: numeric (µM). Do not append units.

Dear colleague, I am looking for the recorded Km of the following molecule: Oc1ccc(/C=C/c2cc(O)cc(O)c2)cc1
7.34
